Exercise: state measured Percent Effect for each of the molecules provided.
System: Wolbachia pipientis
PROTOCOL_TEXT: Anti-Wolbachia Cell-Based Screen
Format: functional
Parameters: scale not given: in the data most compounds retested in dose-response had high values
SETTINGS: 5 µM
Hit rate of the full screen: of about 48,000 compounds, about 13,000 (27%) showed an effect of 50% or more. The list shows a part of the results.
Quick reminder: number only, in %, skip the unit.

Query: Look up Percent Effect for this molecule: CCc1n[nH]c(C2CN(CCc3cccs3)CCO2)n1 (stereo not drawn)
Result: 2.973

Query: Look up Percent Effect for this molecule: c1ccc2c(c1)CC(N1CCCN(Cc3cccc4nonc34)CC1)C2
Result: -60.59

Query: Look up Percent Effect for this molecule: CC(Cc1ccco1)NC(=O)NCc1ncnn1C (stereo not drawn)
Result: 9.946

Query: Look up Percent Effect for this molecule: Cn1c(C(=O)NS(C)(=O)=O)ccc1-c1ccccc1
Result: -9.851

Query: Look up Percent Effect for this molecule: Cc1cnc(N2CCC3(CCC(C(=O)NC(C)C)OC3)CC2)nc1 (stereo not drawn)
Result: -9.523

Query: Look up Percent Effect for this molecule: Cn1c(CN2CCOC(c3nc(C(C)(C)C)n[nH]3)C2)nnc1C1CC1 (stereo not drawn)
Result: 2.258

Query: Look up Percent Effect for this molecule: CN(CCO)Cc1nnc(C2CCN(C(=O)c3ccccn3)CC2)n1C
Result: -1.336

Query: Look up Percent Effect for this molecule: CC(C)[C@@H]1CN(C(=O)NCc2ccco2)C[C@H]1NS(=O)(=O)N(C)C
Result: 8.904

Query: Look up Percent Effect for this molecule: CCC(C(=O)NCc1ccncc1)N(c1cccc(Cl)c1)S(C)(=O)=O (stereo not drawn)
Result: -1.901

Query: Look up Percent Effect for this molecule: Cc1ccc(CN2C(=O)CC[C@]23CC[C@@H](NCC2CCOC2)CC3)cc1.O=C(O)C(F)(F)F (stereo partly drawn)
Result: -23.04

Query: Look up Percent Effect for this molecule: Cn1c(Cn2ccnc2)nnc1C1CCN(C(=O)c2cccnc2)CC1
Result: 92.17

Query: Look up Percent Effect for this molecule: CC(C)[C@H](NS(C)(=O)=O)C(=O)NCc1cc(-c2ccco2)nn1C
Result: 131.1

Query: Look up Percent Effect for this molecule: Cn1c(Cn2ccnc2)nnc1C1CCN(C(=O)c2ccccn2)CC1
Result: 107.7

Query: Look up Percent Effect for this molecule: Cc1n[nH]c(C2CN(CCCOc3ccc(F)cc3)CCO2)n1 (stereo not drawn)
Result: -9.596

Query: Look up Percent Effect for this molecule: Cc1n[nH]c(C2CN(CCc3cccs3)CCO2)n1 (stereo not drawn)
Result: 117.1

Query: Look up Percent Effect for this molecule: CC(NC(=O)c1cc(-c2cccc(Cl)c2)no1)C(=O)N(C)C (stereo not drawn)
Result: -38.11

Query: Look up Percent Effect for this molecule: CCCc1nnc(N2CCCC(c3nnc(Cn4ccnc4)n3C)C2)s1 (stereo not drawn)
Result: 0.1518

Query: Look up Percent Effect for this molecule: CCCc1n[nH]c(C2CN(CCn3cccn3)CCO2)n1 (stereo not drawn)
Result: -0.7272

Query: Look up Percent Effect for this molecule: CC(C)(C)c1n[nH]c(C2CN(CCc3cccs3)CCO2)n1 (stereo not drawn)
Result: 121.2

Query: Look up Percent Effect for this molecule: CCCS(=O)(=O)N1CCn2cc(CNc3ccccn3)nc2C1.O=C(O)C(F)(F)F
Result: -1.498

Query: Look up Percent Effect for this molecule: Cn1ncc(NCc2cc(F)cc(F)c2)c(Cl)c1=O
Result: -8.673

Query: Look up Percent Effect for this molecule: Cc1nc(C(=O)N2CCC(c3nnc(Cn4ccnc4)n3C)CC2)cs1
Result: 92.58

Query: Look up Percent Effect for this molecule: CCCc1n[nH]c(C2CN(CCc3cccs3)CCO2)n1 (stereo not drawn)
Result: 119.2
